Test system: HCC1569;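 further: TDF is a line of transformed human dermal fibroblasts of mesenchymal origin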
Experiment: H1.0 immunofluorescence intensity relative to DMSO (% of DMSO); higher = stronger H1.0 induction, active = 140 or more
Settings: concentration: 10 µM; 24 h
Assign Met to entries whose H1.0 immunofluorescence intensity meets or exceeds 90; assign Not met to the rest.

Please review the entries below; each comes with its answer.
Cl.c1ccc(-n2c(C3=NCCN3)cc3ccccc32)cc1; Met
CCCCn1c(=O)c2c(ncn2CC(C)=O)n(CCCC)c1=O [Denbufylline]; Met
C[C@H](CCC(=O)O)[C@H]1CC[C@H]2[C@@H]3C[C@H](O)[C@@H]4C[C@H](O)CC[C@]4(C)[C@H]3CC[C@]12C [(3alpha,5beta,6alpha)-3,6-dihydroxycholan-24-oic acid]; Met
O=c1cc(-c2ccc(O)cc2)oc2c(C3OC(CO)C(O)C(O)C3O)c(O)cc(O)c12 (stereo not drawn) [Vitexin]; Not met

# bool: H1.0 immunofluorescence intensity of NC(=O)c1ccc2nc(-c3ccc(Oc4ccc(Cl)cc4)cc3)[nH]c2c1 [Chk2 Inhibitor II] >= 90
Met
